The values you see were collected from ChEMBL document CHEMBL3734705.

Entries and their Activity values follow.
test: Cytotoxicity against human UACC257 cells assessed as growth level at 10 uM after 48 hrs by SRB assay; format: functional, UACC-257
Numbers only; they are read as %.

Here is how some compounds turned out for Activity.
[[record]]
compound = "C=C1CC[C@@H]2[C@](C)(COC(C)=O)[C@H](OC(C)=O)CC[C@@]2(C)[C@@H]1CC(Sc1ccccc1)C1=CCOC1=O (mixture of isomers)"
readout_unit = "%"
reading = 29.37

[[record]]
compound = "C=C1CC[C@@H]2[C@](C)(COC(C)=O)[C@H](OC(C)=O)CC[C@@]2(C)[C@@H]1CC(Nc1ccc(S(=O)(=O)NC(C)=O)cc1)C1=CCOC1=O (mixture of isomers)"
readout_unit = "%"
reading = -10.57

[[record]]
compound = "C=C1CC[C@@H]2[C@](C)(COC(C)=O)[C@H](OC(C)=O)CC[C@@]2(C)[C@@H]1CC(NC1CC1)C1=CCOC1=O (mixture of isomers)"
readout_unit = "%"
reading = 100.57

[[record]]
compound = "C=C1CC[C@@H]2[C@](C)(COC(C)=O)[C@H](OC(C)=O)CC[C@@]2(C)[C@@H]1CC(NCCCC)C1=CCOC1=O (mixture of isomers)"
readout_unit = "%"
reading = 85.16

[[record]]
compound = "C=C1CC[C@@H]2[C@](C)(COC(C)=O)[C@H](OC(C)=O)CC[C@@]2(C)[C@@H]1CC(NCCCCCCCCCCCCCCCCCC)C1=CCOC1=O (mixture of isomers)"
readout_unit = "%"
reading = 108.48


Next up:
What the record says about C=C1CC[C@@H]2[C@](C)(COC(C)=O)[C@H](OC(C)=O)CC[C@@]2(C)[C@@H]1C/C=C1/C(=O)OC[C@H]1OC(C)=O : Activity is 66.52
